This collection of values is drawn from the supplement of paper PMC9254222.

Below, each of the compounds is paired with its reported Renilla luciferase signal value.
Tested on: HEK293T (UBE3A T485A transfected, BAR Wnt reporter)
Assay: Renilla luciferase signal (cell health) relative to plate median (fold (linear ratio)); higher = higher Renilla signal
Details: concentration: 1 uM; 24 h
The full ranking holds about 1,100 compounds; the median of “Renilla luciferase signal (cell health) relative to plate median” is about 0.97, and the highest 2% start at about 1.6. The list comes from a sample in which the highest values are over-represented; it also holds close analogues and randomly drawn compounds.

- CN(C)[C@@H]1C(O)=C(C(N)=O)C(=O)[C@@]2(O)C(O)=C3C(=O)c4c(O)cccc4[C@@](C)(O)[C@H]3C[C@@H]12 [Tetracycline]: 0.805
- c1ccc2c(c1)ccc1ccccc12 [Phenanthrene]: 0.792
- CC(=O)O[C@]1(C(C)=O)CC[C@H]2[C@@H]3C=C(Cl)C4=CC(=O)[C@@H]5C[C@@H]5[C@]4(C)[C@H]3CC[C@@]21C [Cyproterone acetate]: 0.965
- Cc1cc(C=C2SC(=O)N(c3ccccc3)C2=O)c(C)n1-c1cccnc1: 1.06
- C=CCc1ccc(OC)c(OC)c1 [Methyleugenol]: 0.832
- CN(C)[C@@H]1C(O)=C(C(N)=O)C(=O)[C@@]2(O)C(O)=C3C(=O)c4c(O)cccc4[C@@](C)(O)[C@H]3[C@H](O)[C@@H]12.O.O [Oxytetracycline dihydrate]: 0.879

// field: Renilla luciferase signal; key: CCCCCCCCCCCCCCCCOS(=O)(=O)[O-].[Na+] [Sodium hexyldecyl sulfate] ; value = 1.05

// field: Renilla luciferase signal; key: `CN(C)C(=O)C1(N2CCCCC2)CCN(CC[C@@]2(c3ccc(Cl)c(Cl)c3)CN(C(=O)c3ccccc3)CCO2)CC1` ; value = 0.888

// field: Renilla luciferase signal; key: CC(=O)OC1C(=O)C2(C)C(O)CC3OCC3(OC(C)=O)C2C(OC(=O)c2ccccc2)C2(O)CC(OC(=O)C(O)C(NC(=O)c3ccccc3)c3ccccc3)C(C)=C1C2(C)C (stereo not drawn) [Taxol] ; value = 0.111

// field: Renilla luciferase signal; key: CN(C)[C@@H]1C(O)=C(C(N)=O)C(=O)[C@@]2(O)C(O)=C3C(=O)c4c(O)cccc4[C@@](C)(O)[C@H]3[C@H](O)[C@@H]12.Cl [Oxytetracycline hydrochloride] ; value = 1.35

// field: Renilla luciferase signal; key: Cn1cnc([N+](=O)[O-])c1Sc1ncnc2nc[nH]c12 [Azathioprine] ; value = 0.983

// field: Renilla luciferase signal; key: `Cc1nc(-c2ccccn2)ncc1C(=O)Nn1cc(C)c2cc(F)ccc21` ; value = 0.877

// field: Renilla luciferase signal; key: `CCN(CC)CCNc1ccc(CNC=O)c2sc3ccc(OC)cc3c(=O)c12` ; value = 0.626

// field: Renilla luciferase signal; key: `Cc1oc(-c2ccccc2)nc1CCOc1cccc2c1ccn2CCC(=O)O` ; value = 0.846

// field: Renilla luciferase signal; key: O=[N+]([O-])c1ccc(O)cc1 [4-Nitrophenol] ; value = 0.956
